- Tested on: HaCat
- PROTOCOL_DETAILS: Cytotoxic Profiling of Annotated Libraries Using Quantitative High-Throughput Screening (AID 1296008); further: nearly all actives have a fitted effect of over 60% in size
- EXPERIMENTAL_SETUP: Five cell lines viability, CellTiter-Glo ATP luminescence, 48-72 h
Results filed as inconclusive are left out. Active and inactive are the calls of the source. The call rests on the fitted dose curve; in most records, active means well fitted inhibition curve with a large enough effect; inconclusive means small, poorly fitted or top-dose-only effect; inactive means flat fitted curve, though single readings scatter.
In this exercise, the only acceptable responses are yes (1) for active, no (0) for inactive

>  <COMPOUND>
NC(=Nc1ccccc1)Nc1ccccc1

>  <TEST_SYSTEM>
HaCat

>  <CLASS_LABEL>
no (0)

$$$$

Exam item: Entry CCCNC(C)C(=O)Nc1ccccc1C (stereo not drawn) : call = ?
Marked response: no (0)

Exam item: Again, but for NC(=O)c1ncn([C@@H]2O[C@H](CO)[C@@H](O)[C@H]2O)c1O
Marked response: no (0)

Exam item: And the next one, CN1C(=O)CC[C@H]1c1cccnc1 ?
Marked response: no (0)

Exam item: Also need CCOC(=O)C1=C(C)NC(C)=C(C(=O)OC)C1c1cccc([N+](=O)[O-])c1 (stereo not drawn) , thanks.
Marked response: no (0)

###

- Tested on: JCK
- PROTOCOL_DETAILS: qHTS profiling for inhibitors of Plasmodium falciparum proliferation (AID 504749);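 further: 0% = DMSO vehicle and full inhibition = artemisinin control; nearly all actives have a fitted effect of over 60% in size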
- EXPERIMENTAL_SETUP: P. falciparum in erythrocytes, SYBR Green DNA, 72 h; series mostly up to 28.7 µM
Inconclusive results are not listed. The source made the active and inactive calls. Calls come from the whole dose curve; as a rule, active = well fitted inhibition curve with a large enough effect; inconclusive = small, poorly fitted or top-dose-only effect; inactive = flat fitted curve, though single readings scatter.
Parameter call: string, one of active, inactive

>  <COMPOUND>
CC(N=C(NC#N)Nc1ccncc1)C(C)(C)C (stereo unspecified)

>  <CLASS_LABEL>
inactive

$$$$
>  <COMPOUND>
CC[N+](C)(C)c1cccc(O)c1

>  <CLASS_LABEL>
inactive

$$$$
>  <COMPOUND>
Brc1c(NC2=NCCN2)ccc2nccnc12

>  <CLASS_LABEL>
inactive

$$$$

Exam item: // return assay outcome for Cc1nc2c([nH]1)c(=O)n(C)c(=O)n2Cc1ccco1
Marked response: inactive

Exam item: Record: CCN1CCC[C@H]1CNC(=O)c1c(O)c(Cl)cc(Cl)c1OC
Marked response: inactive

###

- Tested on: astro
- PROTOCOL_DETAILS: Drug repurposing screens with cells derived from glioblastoma tumor samples (AID 1345199); further: on the % scale 0 is the no-effect control and ±100 the full control effect; nearly all actives have a fitted effect of over 40% in size
- EXPERIMENTAL_SETUP: viability, ATP luminescence, 48 h; series mostly up to 45.9 µM
Results filed as inconclusive are left out. Activity calls are given as the source filed them. Calls follow the shape of the dose curve; as a rule, active = well fitted inhibition curve with a large enough effect; inconclusive = small, poorly fitted or top-dose-only effect; inactive = flat fitted curve, though single readings scatter.
Hello, when you answer, please use one of the following outcomes: active, inactive

>  <COMPOUND>
C[C@]12CCC(=O)C=C1CC[C@@H]1[C@@H]2C(=O)C[C@@]2(C)[C@H]1CC[C@]2(O)C(=O)CO

>  <TEST_SYSTEM>
astro

>  <CLASS_LABEL>
inactive

$$$$

Now for a further compound.
Exam item: What outcome does the record of this test show for NC1=NCC2c3ccccc3Cc3ccccc3N12 (stereo not drawn) ?
Marked response: inactive

###

- PROTOCOL_DETAILS: Cell Viability - Renal Proximal Tubule (AID 545);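 further: cells exposed to compound for 40 hours; 0% = DMSO only and -100% = 100 µM tamoxifen; nearly all actives have a fitted effect of over 40% in size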
- EXPERIMENTAL_SETUP: renal proximal tubule cells viability, primary cells of rat origin; at 91.7 µM (top of the series)
Inconclusive results are not listed.
activity change, negative = cytotoxicity for assorted molecules
Enter your answer as a number in %; do not include the unit.

Reference set (4 entries):
>  <GIVEN_SMILES>
NC(=O)N1c2ccccc2C=Cc2ccccc21

>  <activity change, negative = cytotoxicity (%)>
2.97

$$$$
>  <GIVEN_SMILES>
O=c1[nH]c(=O)n([C@H]2C[C@H](O)[C@@H](CO)O2)cc1Br

>  <activity change, negative = cytotoxicity (%)>
-3.47

$$$$
>  <GIVEN_SMILES>
CCCCNC(=O)NS(=O)(=O)c1ccc(C)cc1

>  <activity change, negative = cytotoxicity (%)>
-6.67

$$$$
>  <GIVEN_SMILES>
Nc1nc(N)c2nc(-c3ccccc3)c(N)nc2n1

>  <activity change, negative = cytotoxicity (%)>
-93

$$$$

Exam item: Please look up its activity change, negative = cytotoxicity: COC(=O)[C@H]1[C@H]2C[C@@H]3c4[nH]c5cc(OC)ccc5c4CCN3C[C@H]2C[C@@H](OC(=O)c2cc(OC)c(OC)c(OC)c2)[C@@H]1OC
Marked response: -101

Exam item: Do the same for CN=C(NC#N)NCCSCc1nc[nH]c1C please
Marked response: -10.6

Exam item: What would you report for CCCCOCCOCCOCc1cc2c(cc1CCC)OCO2 ?
Marked response: -1.35

Exam item: Also NC(=Nc1ccccc1)Nc1ccccc1 , if possible.
Marked response: -3.07
